Assay: Cytotoxicity in HepG2.117 cells (ATPlite Luminescence Assay)
Format: cell-based
Conditions: human, incubated for 3 days, cell viability, mean value, read-out: TOX-HepG2.117 CC50 (μM, mean value)

Compound	Relational operator	CC50 at 3 days / µM
C[C@@H]1Cc2nn3c(c2CN1C(=O)c1ccc(Cl)c(Cl)c1)C(F)(F)CNCC3	>	50
CC(=O)NCC1CCC(F)(F)c2c3c(nn2C1)CCN(C(=O)c1ccc(Cl)c(Cl)c1)C3 (stereo not shown)	>	50
C[C@@H]1Cc2nn3c(c2CN1C(=O)c1ccc(Cl)c(Cl)c1)C(F)(F)CN(S(C)(=O)=O)CC3	>	50
C[C@@H]1Cc2nn3c(c2CN1C(=O)c1ccc(Cl)c(Cl)c1)C(F)(F)CC[C@@H](O)C3 (single isomer, unassigned)	>	50
C[C@@H]1Cc2nn3c(c2CN1C(=O)c1ccc(Cl)c(Cl)c1)C(F)(F)CC[C@@H](C(C)(C)O)C3 (single isomer, unassigned)	=	5.76
C#C[C@@]1(O)CCC(F)(F)c2c3c(nn2C1)C[C@@H](C)N(C(=O)c1ccc(Cl)c(Cl)c1)C3 (single isomer, unassigned)	=	33.8
C[C@@H]1Cc2nn3c(c2CN1C(=O)c1ccc(Cl)c(Cl)c1)C(F)(F)CC[C@H](CO)C3 (single isomer, unassigned)	=	33.6
C[C@@H]1Cc2nn3c(c2CN1C(=O)c1ccc(Cl)c(Cl)c1)C(F)(F)C(O)CCC3 (stereo partly shown)	>	50
COC(=O)NCC1CCC(F)(F)c2c3c(nn2C1)CCN(C(=O)c1ccc(Cl)c(Cl)c1)C3 (stereo not shown)	=	38.2
C[C@@H]1Cc2nn3c(c2CN1C(=O)c1ccc(Cl)c(Cl)c1)C(F)(F)CN(C)CC3	>	50

###

# CC50 at 3 days per record follows
Assay: Cytotoxicity in HepG2.117 cells (ATPlite Luminescence Assay)
Type: cell-based
Conditions: human, incubated for 3 days, cell viability, mean value, read-out: TOX-HepG2.117 CC50 (μM, mean value)

Compound	Relational operator	CC50 at 3 days [µM]
C#C[C@]1(O)CCC(F)(F)c2c3c(nn2C1)C[C@@H](C)N(C(=O)c1ccc(Cl)c(Cl)c1)C3 (single isomer, unassigned)	=	36.9
O=C(c1ccc(Cl)c(Cl)c1)N1CCc2nn3c(c2C1)C(F)(F)CCC(CNC(=O)C(F)(F)F)C3 (stereo not drawn)	=	20
COc1ccc(CN2CCn3nc4c(c3C(F)(F)C2)CN(C(=O)c2ccc(Cl)c(Cl)c2)[C@H](C)C4)cc1	=	15.7
C[C@@H]1Cc2nn3c(c2CN1C(=O)c1ccc(Cl)c(Cl)c1)C(F)(F)CC[C@@H](CO)C3 (single isomer, unassigned)	=	32.7
C[C@@H]1Cc2nn3c(c2CN1C(=O)c1ccc(Cl)c(Cl)c1)C(F)(F)C(Oc1ccc(C#N)cc1)CCC3 (stereo partly drawn)	>	50
C[C@@H]1Cc2nn3c(c2CN1C(=O)c1ccc(Cl)c(Cl)c1)C(F)(F)CC[C@H](O)C3 (single isomer, unassigned)	>	50

###

Test system: HBV
Test: Anti-HBV activity in HepG2.117 cell line (intracellular HBV DNA, real-time PCR)
Assay type: cell-based
Conditions: Hepatitis B virus, 72 h; HepG2.117 cells, 3 days of treatment, intracellular HBV DNA, mean value; read-out: HBV-AVE-HepG2.117 EC50 (μM, mean value)
Items are presented alongside their recorded log10 of EC50.
Parameter: log10 of EC50 (log10 of the value in µM)

Compound	Target or system	Value measured
C[C@@H]1Cc2nn3c(c2CN1C(=O)c1ccc(Cl)c(Cl)c1)C(F)(F)CC[C@H](O)C3 (single isomer, unassigned)	HBV	-1.74
CC(=O)NCC1CCC(F)(F)c2c3c(nn2C1)CCN(C(=O)c1ccc(Cl)c(Cl)c1)C3 (centres unmarked)	HBV	-0.66
COc1ccc(CN2CCn3nc4c(c3C(F)(F)C2)CN(C(=O)c2ccc(Cl)c(Cl)c2)[C@H](C)C4)cc1	HBV	-0.56
C[C@@H]1Cc2nn3c(c2CN1C(=O)c1ccc(Cl)c(Cl)c1)C(F)(F)CNCC3	HBV	-1.06
COC(=O)NCC1CCC(F)(F)c2c3c(nn2C1)CCN(C(=O)c1ccc(Cl)c(Cl)c1)C3 (centres unmarked)	HBV	-0.75
C[C@@H]1Cc2nn3c(c2CN1C(=O)c1ccc(Cl)c(Cl)c1)C(F)(F)CN(C)CC3	HBV	-1.49
C#C[C@]1(O)CCC(F)(F)c2c3c(nn2C1)C[C@@H](C)N(C(=O)c1ccc(Cl)c(Cl)c1)C3 (single isomer, unassigned)	HBV	-1.11
C[C@@H]1Cc2nn3c(c2CN1C(=O)c1ccc(Cl)c(Cl)c1)C(F)(F)C(O)CCC3 (some centres unmarked)	HBV	0.52
C[C@@H]1Cc2nn3c(c2CN1C(=O)c1ccc(Cl)c(Cl)c1)C(F)(F)CN(S(C)(=O)=O)CC3	HBV	-1.28
C[C@@H]1Cc2nn3c(c2CN1C(=O)c1ccc(Cl)c(Cl)c1)C(F)(F)CC[C@@H](CO)C3 (single isomer, unassigned)	HBV	-1.32
C[C@@H]1Cc2nn3c(c2CN1C(=O)c1ccc(Cl)c(Cl)c1)C(F)(F)CC[C@@H](O)C3 (single isomer, unassigned)	HBV	-1.72
C#C[C@@]1(O)CCC(F)(F)c2c3c(nn2C1)C[C@@H](C)N(C(=O)c1ccc(Cl)c(Cl)c1)C3 (single isomer, unassigned)	HBV	-0.59
